meta.source: the supplement of paper PMC9732359

Kindly supply the reported protein stability index values for the records listed here.
- method: protein stability index of a GFP-peptide fusion (yeast GPS) (PSI 1-4); higher = more stable; sorted into four equal gates, so the index is relative within each strain
- condition: pdr5∆
A bare number is all that is needed in reply.

Problem: Look up protein stability index of YVSDSDDSSSDNDSLTD [SIR4] and report it.
Solution: 2.94

Problem: Look up protein stability index of ESEYREFESELKNVEET [ESC2] and report it.
Solution: 3.47

Problem: Look up protein stability index of TKPAIRRLARRGGVKRI [HHF1] and report it.
Solution: 3.12

Problem: Look up protein stability index of FQEGVVVAKKDFNQAKH [RPS10A] and report it.
Solution: 2.92

Problem: Look up protein stability index of NGQPLNQNFSLTFQPQQ [GRR1] and report it.
Solution: 3.12

Problem: Look up protein stability index of VQIKDVNDRYQIPTPNN [CSI1] and report it.
Solution: 2.25

Problem: Look up protein stability index of MIYDDAHEISQGVYGAV [BRR2] and report it.
Solution: 2.88

Problem: Look up protein stability index of LLLKLASPHASVRTAVF [ECM29] and report it.
Solution: 1.87

Problem: Look up protein stability index of TYRYVSVSVLVDRLKIG [RPS25A] and report it.
Solution: 1.48

Problem: Look up protein stability index of MPFWKFFMKNFPFVLKV [SRB8] and report it.
Solution: 1.99

Problem: Look up protein stability index of RKYEISFGKIYVTKPMV [RPB2] and report it.
Solution: 2.44

Problem: Look up protein stability index of GYIKNNKKIYQWNKLTS [POP6] and report it.
Solution: 2.91

Problem: Look up protein stability index of VLVGSCAYTGTGDVLLI [RPN1] and report it.
Solution: 3.35

Problem: Look up protein stability index of MNTTLGSIGSRKYSFNY [YAR002W/NUP60] and report it.
Solution: 2.29

* * *

- method: protein stability index of a GFP-peptide fusion (yeast GPS) (PSI 1-4); higher = more stable; sorted into four equal gates, so the index is relative within each strain
- condition: san1∆
Kindly supply the reported protein stability index values for the records listed here.
A bare number is all that is needed in reply.

Problem: Look up protein stability index of YVLSTAVEFESVPLRKG [BRR2] and report it.
Solution: 1.93

Problem: Look up protein stability index of NMEIRNLRLKILTIIEE [GRR1] and report it.
Solution: 1.83

Problem: Look up protein stability index of ACHVEVPYVLMGQIATF [COB] and report it.
Solution: 1.87

Problem: Look up protein stability index of VLEFCKDYEAKTKAMSL [POP1] and report it.
Solution: 2.73

Problem: Look up protein stability index of LSKVFSDVLFEFTKINT [YJL039C/NUP192] and report it.
Solution: 2.09

Problem: Look up protein stability index of GEKNFTSAHLKLKEMQK [SMC4] and report it.
Solution: 3.27

Problem: Look up protein stability index of PVGACATSVESVDIGVE [FAS2] and report it.
Solution: 2.12

Problem: Look up protein stability index of MFNDLNSMDISMFSGLD [MED2] and report it.
Solution: 3.15

Problem: Look up protein stability index of LALQRGATVFVNHLLLF [DPB4] and report it.
Solution: 1.25

Problem: Look up protein stability index of SEVANNGLIISWSNGKI [RRP42] and report it.
Solution: 3.03

Problem: Look up protein stability index of GEKNSDDYSNEDNEMLE [YJR042W/NUP85] and report it.
Solution: 2.06

Problem: Look up protein stability index of DFYVVMNRPGARVTRRK [RPL11A] and report it.
Solution: 3.28

Problem: Look up protein stability index of EINAVFNELCDPESRTQ [POP1] and report it.
Solution: 2.75

Problem: Look up protein stability index of HHDYRSYYGIVCLMQIS [RRP6] and report it.
Solution: 1.32

Problem: Look up protein stability index of KPAFSFGINTNTTKTAD [YLR335W/NUP2] and report it.
Solution: 3.11

Problem: Look up protein stability index of KRRKLDLNNAVQKRDEV [SMC4] and report it.
Solution: 2.96

Problem: Look up protein stability index of ENFLKEVFQLRIFVKEI [GAL11] and report it.
Solution: 1.95

Problem: Look up protein stability index of QPKRNLSRYVKWPEYVR [RPL8A] and report it.
Solution: 3.06

Problem: Look up protein stability index of GMPHKFYQGKTGVVYNV [RPL21A] and report it.
Solution: 2.53

Problem: Look up protein stability index of KTWEKVTLDFGNIFADL [SMC2] and report it.
Solution: 3.39

Problem: Look up protein stability index of IKGIREYEEWQKSVSLL [YDL116W/NUP84] and report it.
Solution: 2.5

Problem: Look up protein stability index of VKLGNIWKESLIELSGG [SMC2] and report it.
Solution: 2.12

Problem: Look up protein stability index of VITPHFITNVQSISQNS [SWI1] and report it.
Solution: 2.2

Problem: Look up protein stability index of AKGVYRPNGRKDHDLKI [POP1] and report it.
Solution: 2.93

Problem: Look up protein stability index of ILTSLMRSKLEKLTLVT [CSN9] and report it.
Solution: 2.87

Problem: Look up protein stability index of IGARSQGAKTYLERTLD [PRE5] and report it.
Solution: 3.23

Problem: Look up protein stability index of NVTSSGDHNKLRSTIAN [YML103C/NUP188] and report it.
Solution: 2.35

Problem: Look up protein stability index of KVQISKIPILAQHESFL [RPN9] and report it.
Solution: 2.16

Problem: Look up protein stability index of KFNKSKAKFTSLAVRSL [YCS4] and report it.
Solution: 1.96

Problem: Look up protein stability index of KFMELERKTLERQQENL [SWI3] and report it.
Solution: 3.06
